- target-entity: KCNQ2/3 channels (Homo sapiens, UniProt O43525+O43526)
- Construct: expressed in transfected cells; host or cells: CHO-K1 cells
- assay-details: Fluorescence assay using a voltage-sensitive dye (fluorimetry)
- Type: cell-based
- settings: at 1 μM; 50 μM retigabine = 100%; CHO-K1 cells expressing KCNQ2/3; read-out: Fluorimetry % efficacy at 1 μM (50 μM retigabine = 100%)
assay-endpoint: Emax at 1 µM (%)

Example results:
CCSc1nc2cc(C(C)(C)C)ccc2c(C)c1C(=O)NCc1ccc(F)cc1 [compound 96]	101
CCSc1nc2cc(N(C)C)ccc2c(C)c1C(=O)NCc1ccc(F)cc1 [compound 133]	15
CCSc1nc2cc(C(F)(F)F)ccc2c(C)c1C(=O)NCc1ccncc1 [compound 35]	142
CCCCCSc1nc2ccccc2cc1C(=O)NCc1cccs1 [compound 1]	143
CCSc1nc2ccc(F)cc2c(C)c1C(=O)NCc1cccc(F)c1 [compound 116]	147

[A] CCSc1nc2cc(C(F)(F)F)ccc2c(C)c1C(=O)NCc1ccc(C)cc1 [compound 83]
[B] CCSc1nc2cccc(O)c2c(C)c1C(=O)NCc1cccc(F)c1 [compound 127]
**Query** Given A and B , report the one with the higher recorded Emax at 1 µM. # reply format: chosen label
**Result** A

[1] CCSc1nc2ccc(O)cc2c(C)c1C(=O)NCc1cccc(F)c1 [compound 128]
[2] O=C(NCCC1CCCCC1)c1cc2ccccc2nc1SCCS(=O)(=O)c1ccccc1 [compound 22]
[3] CCSc1nc2cc(C(C)(C)C)ccc2c(C)c1C(=O)NCc1cccc(F)c1 [compound 95]
[4] CCSc1nc2cc(C(F)(F)F)ccc2c(C)c1C(=O)NCc1cccc(C(F)(F)F)c1 [compound 38]
**Query** Ascending by Emax at 1 µM, please. Note for the reader: the ranking is given by listing the labels in the order requested.
**Result** 2, 1, 3, 4

[P] CCSc1nc2cc(C(F)(F)F)ccc2c(C)c1C(=O)NCc1ccc(C)s1 [compound 69]
[Q] CCSc1nc2cc(C(F)(F)F)ccc2cc1C(=O)NCc1cccs1 [compound 14]
[R] CCSc1nc2cc(C(F)(F)F)ccc2c(C)c1C(=O)NCc1ccccc1OC [compound 84]
**Query** Ascending by Emax at 1 µM, please. Note for the reader: the ranking is given by listing the labels in the order requested.
**Result** R, P, Q
(R: 25%, P: 123%, Q: 223%)

[I] CCSc1nc2ccc(OC)cc2c(C)c1C(=O)NCc1ccc(F)cc1 [compound 102]
[II] CCSc1nc2cc(OC)ccc2c(C)c1C(=O)NCc1ccc(F)cc1 [compound 98]
**Query** Given I and II , report the one with the higher recorded Emax at 1 µM. # reply format: chosen label
**Result** II
(II: 70%, I: 14%)

[P] CCSc1nc2cc(C(F)(F)F)ccc2c(C)c1C(=O)NCCC(C)C [compound 37]
[Q] CCSc1nc2cc(C(F)(F)F)ccc2c(C)c1C(=O)NCc1ccc(C)o1 [compound 111]
**Query** Of P and Q , whose reported Emax at 1 µM is numerically smaller? # reply format: chosen label
**Result** P

---

- target-entity: KCNQ2/3 channels (Homo sapiens, UniProt O43525+O43526)
- Construct: expressed in transfected cells; host or cells: CHO-K1 cells
- assay-details: Fluorescence assay using a voltage-sensitive dye (fluorimetry)
- Format: cell-based
- settings: at 1 μM; 50 μM retigabine = 100%; CHO-K1 cells expressing KCNQ2/3; read-out: Fluorimetry % efficacy at 1 μM (50 μM retigabine = 100%)
assay-endpoint: Emax at 1 µM (%)

CCSc1nc2cc(C)ccc2c(C)c1C(=O)NCc1ccc(F)cc1 [compound 108]	149

[I] CCSc1nc2cc(C(F)(F)F)ccc2c(C)c1C(=O)NCc1ccc2ccccc2c1 [compound 43]
[II] CCSc1nc2cc(C(F)(F)F)ccc2cc1C(=O)NCC(C)(C)C [compound 90]
[III] CCSc1nc2cc(C(F)(F)F)ccc2c(C)c1C(=O)NCc1cccc(Cl)c1 [compound 79]
**Query** Rank descending by Emax at 1 µM. Note for the reader: the ranking is given by listing the labels in the order requested.
**Result** III, I, II

---

- target-entity: KCNQ2/3 channels (Homo sapiens, UniProt O43525+O43526)
- assay-details: Fluorescence assay using a voltage-sensitive dye (fluorimetry)
- settings: CHO-K1 cells expressing KCNQ2/3 channels
assay-endpoint: EC50 (nM)

Example results:
CCSc1nc2cc(C(F)(F)F)ccc2c(C)c1C(=O)NCCCC(C)C	150
CCCSc1nc2cc(C(F)(F)F)ccc2c(C)c1C(=O)NCc1cccc(F)c1	141
CCSc1nc2cc(C(F)(F)F)ccc2c(C)c1C(=O)NCc1cccc(Cl)c1	124

[1] Cc1c(C(=O)NCc2ccc(F)cc2)c(SC(C)(C)C)nc2cc(C(F)(F)F)ccc12
[2] O=C(NCc1cccs1)c1cc2ccccc2nc1SCCCc1ccccc1
[3] CCSc1nc2cc(C(F)(F)F)ccc2c(C)c1C(=O)NCc1cccc(C)c1
[4] O=C(NCc1cccs1)c1cc2ccccc2nc1SCCS(=O)(=O)c1ccccc1
**Query** Rank descending by EC50. Note for the reader: the ranking is given by listing the labels in the order requested.
**Result** 4, 3, 2, 1

---

- target-entity: KCNQ2/3 channels (Homo sapiens, UniProt O43525+O43526)
- Construct: expressed in transfected cells; host or cells: CHO-K1 cells
- assay-details: Fluorescence assay using a voltage-sensitive dye (fluorimetry)
- Type: cell-based
- settings: at 1 μM; 50 μM retigabine = 100%; CHO-K1 cells expressing KCNQ2/3; read-out: Fluorimetry % efficacy at 1 μM (50 μM retigabine = 100%)
- Protocol: […] CHO-K1 cells expressing KCNQ2/3 channels are cultivated adherently at 37° C., 5% CO2 and 95% humidity in cell culture bottles (e.g. 80 cm^2 TC flasks, Nunc) with DMEM-high glucose (Sigma Aldrich, D7777) including 10% FCS (PAN Biotech, e.g. 3302-P270521) or alternatively MEM Alpha Medium (1×, liquid, Invitrogen, #22571), 10% foetal calf serum (FCS) (Invitrogen, #10270-106, heat-inactivated) and the necessary selection antibiotics. […]
assay-endpoint: Emax at 1 µM (%)

CCCCSc1nc2cc(C(F)(F)F)ccc2c(C)c1C(=O)NCc1cccc(F)c1	151
Cc1ccc(CCCSc2nc3ccccc3cc2C(=O)NCc2cccs2)cc1	64
CCC(C)Sc1nc2cc(C(F)(F)F)ccc2c(C)c1C(=O)NCc1cccc(F)c1 (centres unmarked)	158
O=C(NCc1cccs1)c1cc2ccccc2nc1SCCCc1ccccc1	168
CCSc1nc2cc(C(F)(F)F)ccc2c(C)c1C(=O)NCc1nnco1	23
CCSc1nc2cc(C(F)(F)F)ccc2c(C)c1C(=O)NCCc1ccccc1	48

[P] O=C(NCc1cccs1)c1cc2c(C(F)(F)F)cccc2nc1SCCS(=O)(=O)c1ccccc1
[Q] CCSc1nc2cc(C(F)(F)F)ccc2c(C)c1C(=O)NCc1ccc(Cl)s1
**Query** Given P and Q , report the one with the higher recorded Emax at 1 µM. # reply format: chosen label
**Result** Q

[A] O=C(NCc1cccs1)c1cc2ccccc2nc1SCCCc1ccc(F)cc1
[B] CCSc1nc2cc(C)ccc2c(C)c1C(=O)NCc1cccc(F)c1
**Query** Of A and B , whose reported Emax at 1 µM is numerically smaller? # reply format: chosen label
**Result** A
(A: 111%, B: 161%)

[a] CCSc1nc2ccccc2c(C)c1C(=O)NCc1cccc(F)c1
[b] CCSc1nc2cc(C(F)(F)F)ccc2c(OC)c1C(=O)NCc1cccc(F)c1
**Query** Of a and b , whose reported Emax at 1 µM is numerically smaller? # reply format: chosen label
**Result** a

---

- target-entity: KCNQ2/3 channels (Homo sapiens, UniProt O43525+O43526)
- assay-details: Fluorescence assay using a voltage-sensitive dye (fluorimetry)
- settings: CHO-K1 cells expressing KCNQ2/3 channels
- Experimental: […] CHO-K1 cells expressing KCNQ2/3 channels are cultivated adherently at 37° C., 5% CO2 and 95% humidity in cell culture bottles (e.g. 80 cm^2 TC flasks, Nunc) with DMEM-high glucose (Sigma Aldrich, D7777) including 10% FCS (PAN Biotech, e.g. 3302-P270521) or alternatively MEM Alpha Medium (1×, liquid, Invitrogen, #22571), 10% foetal calf serum (FCS) (Invitrogen, #10270-106, heat-inactivated) and the necessary selection antibiotics. […]
pEC50: −log10 of the molar value.
assay-endpoint: pEC50

Example results:
CCSc1nc2cc(C(F)(F)F)ccc2c(C)c1C(=O)NCc1cccc(F)c1	7.04
CCSc1nc2cc(C(F)(F)F)ccc2c(C)c1C(=O)NCc1ccco1	7.05

[A] Cc1c(C(=O)NCc2cccc(F)c2)c(SC(C)(C)C)nc2cc(C(F)(F)F)ccc12
[B] CCSc1nc2ccc(F)cc2c(C)c1C(=O)NCc1cccc(F)c1
**Query** Given A and B , report the one with the higher recorded pEC50. # reply format: chosen label
**Result** A
(A: 7.06, B: 6.22)
